For Serine/threonine-protein kinase Nek2 (Homo sapiens, UniProt P51955), measured log10(IC50) is reported for the entries below.
The figures below represent log10 of IC50, where IC50 is stated in µM.

GET /values?item= CC(Oc1cc(-n2cnc3ccc(OC4CCN(C)CC4)cc32)sc1C(N)=O)c1ccccc1 (racemic) &system= Serine/threonine-protein kinase Nek2 (Homo sapiens, UniProt P51955) returns log10(IC50): 0.82

GET /values?item= CC(Oc1cc(-n2cnc3ccc(OC4CCN(C)CC4)cc32)ccc1C(N)=O)c1ccccc1C(F)(F)F (racemic) &system= Serine/threonine-protein kinase Nek2 (Homo sapiens, UniProt P51955) returns log10(IC50): -0.18

GET /values?item= CC(Oc1cc(-n2cnc3cc(OCCCN(C)C)ccc32)ccc1C(N)=O)c1ccccc1C(F)(F)F (racemic) &system= Serine/threonine-protein kinase Nek2 (Homo sapiens, UniProt P51955) returns log10(IC50): -0.42

GET /values?item= COc1cc(-n2cnc3ccccc32)sc1C(N)=O &system= Serine/threonine-protein kinase Nek2 (Homo sapiens, UniProt P51955) returns log10(IC50): 1.93

GET /values?item= CN1CCC(Oc2ccc3ncn(-c4cc(OCc5ccccc5)c(C(N)=O)s4)c3c2)CC1 &system= Serine/threonine-protein kinase Nek2 (Homo sapiens, UniProt P51955) returns log10(IC50): 0.73

GET /values?item= COc1cc(-n2cnc3ccc(OC4CCN(C)CC4)cc32)sc1C(N)=O &system= Serine/threonine-protein kinase Nek2 (Homo sapiens, UniProt P51955) returns log10(IC50): 1.81

GET /values?item= CC(Oc1cc(-n2cnc3cc(OC4CCN(C5CC5)CC4)ccc32)ccc1C(N)=O)c1ccccc1C(F)(F)F (racemic) &system= Serine/threonine-protein kinase Nek2 (Homo sapiens, UniProt P51955) returns log10(IC50): 0.41
